Please go through the items and note down their viability, T/C.
# Tested on: 282377-053-R-J1-PDC complex spheroid viability;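 further: spheroids exposed to compounds for seven days; 100% = DMSO vehicle control viability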
# assay.overview: Anticancer human tumor 282377-053-R-J1-PDC patient-derived colon adenocarcinoma cell line growth inhibition [POLQ]
# run.conditions: second compound 0.1 µM; first compound 3.16 µM; stronger effect = lower value
Answers are plain numbers, in %.

In the examples that follow, each entry is paired with its recorded viability, T/C.
{"columns": ["compound", "quantity.unit", "viability, T/C"],
 "data": [
  ["COc1cccc2c1C(=O)c1c(O)c3c(c(O)c1C2=O)CC(O)(C(=O)CO)CC3OC1CC(N)C(O)C(C)O1 (stereo not given) + Nc1ccc(C#CCN(C(=O)Cc2ncc(C(F)(F)F)cc2C(F)(F)F)c2ccc(F)cc2)nn1", "%", 17.6],
  ["CC(C)n1c(=O)n(C)c2cnc3cc(F)c(-c4ccc(OCCCN5CCCCC5)nc4)cc3c21 + COC1C(OC(N)=O)C(O)C(Oc2ccc3c(O)c(NC(=O)c4ccc(O)c(CC=C(C)C)c4)c(=O)oc3c2C)OC1(C)C", "%", 118],
  ["CCCS(=O)(=O)Nc1ccc(F)c(C(=O)c2c[nH]c3ncc(-c4ccc(Cl)cc4)cc23)c1F + Nc1ccc(C#CCN(C(=O)Cc2ncc(C(F)(F)F)cc2C(F)(F)F)c2ccc(F)cc2)nn1", "%", 77.2],
  ["Nc1ccn(C2OC(CO)C(O)C2(F)F)c(=O)n1 (stereo not given) + Nc1ccc(C#CCN(C(=O)Cc2ncc(C(F)(F)F)cc2C(F)(F)F)c2ccc(F)cc2)nn1", "%", 80.4]
]}

Now consider a different compound.
Lookup result for CC1COCCN1c1cc(C2(S(C)(=N)=O)CC2)nc(-c2ccnc3[nH]ccc23)n1 (stereo not given) + Nc1ccc(C#CCN(C(=O)Cc2ncc(C(F)(F)F)cc2C(F)(F)F)c2ccc(F)cc2)nn1 ; measured viability, T/C: 78.7
